// provenance: patent US20020016279A1

Documented ΔE across a set of compounds
ASSAY METHOD TEXT: Stain bleach performance of the peroxidase/enhancer system on tomato stains (wash test, no hydrogen peroxide added)
CONDITION INFO: cotton swatches soiled with tomato stains; enhancer 250 μM; peroxidase from Arthromyces ramosus 50 μg/l; wash solution 2 g/l, pH 10.5; 30 minutes at 30° C; no enhancer: 6.5
Structures can show the parent of a compound that is named as a salt.
Output: the number by itself.

Consider the compound shown here: Nc1ccc(S(=O)(=O)NNC(=O)C(=O)NNc2ccccc2)cc1 What is its recorded ΔE? 8.1

Which value of ΔE has been reported for O=C(NNc1ccccc1)c1ccccc1 [2′-phenylbenzohydrazide] in the records? 7.4

// query ΔE value for entry CCOC(=O)C(=O)NNc1cccc(Cl)c1 7.8

Could you tell me which ΔE is on file for COC(=O)C(=O)NNc1ccccc1 [Methyl [2-phenyl]hydrazide oxalate] ? 9.8

Reported ΔE for CCCOC(=O)C(=O)NNc1ccccc1 [Propyl [2-phenyl]hydrazide oxalate] : what is it? 9.8
